- Tested on: A549 (lung)
Label satisfied when GI50 < 2 µM; otherwise not satisfied.

- compound: "C[C@@H]1O[C@@H](n2c3ccccc3c3c4c(c5c6ccccc6[nH]c5c32)CNC4=O)C[C@@H](O)[C@H]1O [formula (XIV), N^13-1′-β-L-digitoxosyl-k252c]"
  system name: "A549 (lung)"
  assigned class: "not satisfied"
- compound: "C[C@H]1O[C@@H](n2c3ccccc3c3c4c(c5c6ccccc6[nH]c5c32)C(=O)NC4=O)C[C@@H](O)[C@@H]1O"
  system name: "A549 (lung)"
  assigned class: "not satisfied"
- compound: "C[C@@H]1O[C@@H](n2c3ccccc3c3c4c(c5c6ccccc6[nH]c5c32)CNC4=O)C[C@H](O)[C@H]1O [formula (XIII), N^13-1′-β-L-olivosyl-k252c]"
  system name: "A549 (lung)"
  assigned class: "satisfied"
- compound: "C[C@]12O[C@H](C[C@H](O)[C@H]1O)n1c3ccccc3c3c4c(c5c6ccccc6n2c5c31)CNC4=O [formula (XVII), N^12-5′(S)-N^13-1′-(R)-L-olivosyl-k252c]"
  system name: "A549 (lung)"
  assigned class: "satisfied"
